Hey, just so you know, these numbers are from PubChem BioAssay (NCI).

Measured TGI by item
Tested on: SN12C renal
Assay: NCI tumour cell line growth inhibition, 48 h

compound | measured_quantity | result
O=C(O)CNc1ncc2c(n1)-c1ccccc1OC2 | TGI | > 100 µM
C=C(Cl)C(Cl)(CBr)CCCC(C)C (stereo unspecified) | TGI | > 100 µM
Cc1nc2ccccc2c(/C=C/c2ccc(C(F)(F)F)cc2)c1C(=O)/C=C/c1ccccc1 | TGI | 3.01 µM
CCOC1OC(CO[Si](C)(C)C(C)(C)C)C(O)CC1n1ccc(=O)[nH]c1=O (stereo unspecified) | TGI | > 100 µM
CC1CCC2C(C(=O)O[C@H]3C4C=CO[C@@H](OC5OC(CO)C(O)C(O)C5O)C4[C@@]4(CO)O[C@@H]34)=CO[C@@H](OC3OC(CO)C(O)C(O)C3O)C12 (stereo partly specified) | TGI | > 10 µM

Next:
Result for CC1=CC(=O)c2ccc3c4ccccc4n(C)c3c2C1=O , tested on SN12C renal, TGI: > 100 µM

* * *

The entries below come with measured TGI values attached.
System: T-47D breast
Assay: NCI tumour cell line growth inhibition, 48 h

compound | measured_quantity | result
CN(C)Cc1cc(C(=O)/C=C/c2ccc(Cl)cc2Cl)cc(CN(C)C)c1O | TGI | 22.1 µM
CC(=O)OC1CCC2(C)C(=CCC3C2CCC2(C)C3CC3OC4(CCC(C)CN4)C(C)C32)C1 (stereo unspecified) | TGI | > 100 µM
O=NN(CC(=O)NNc1ccccc1)CC(=O)NNc1ccccc1 | TGI | > 100 µM

Lab book: TGI of Nc1nc2cc(COc3ccc(C(=O)O)cc3)ccc2nc1-c1ccccc1 noted as > 10 µM

Lab book: TGI of C=CCNC(=S)NC=C(C(N)=O)C(N)=O noted as > 100 µM

// sample COc1cccc(-c2nc(N)c(C#N)c3c2CCS(=O)(=O)c2ccc(C)cc2-3)c1 , its TGI was > 100 µM

According to the records, this compound C=C1C(=O)OC2/C=C(CO)/C=C\C3OC3(C)CC(OC(=O)/C(C)=C/COC(C)=O)C12 (stereo unspecified) displays TGI of 7.53 µM

For this compound ( NC(=O)c1c(NC(=O)c2ccc(C(F)(F)F)cc2Cl)sc2c1CCC(=O)C2 ), measured TGI is 4.73 µM

For this compound ( COc1ccc(C)cc1NC(=S)N/N=C/c1ccco1 ), measured TGI is > 100 µM

Form field TGI, entry CC1=NN(c2nc(N)nc(CCl)n2)C(C)(C)C1 : > 100 µM

So for O=C(NCCc1nccs1)c1cnc2c(S)cccc2c1 , the logged TGI turned out to be 62.6 µM

Value of measured TGI for the entry N=c1oc2ccccc2cc1C(=O)Nc1ccccn1 : > 100 µM

Given item Cc1nc2ccccc2c(/C=C/c2ccc(F)cc2)c1C(=O)/C=C/c1ccccc1 , the value recorded as its TGI is 9.87 µM

Item: CCOC(=O)/C(=C\n1c(=O)sc2ccccc21)C(=O)c1ccccc1 | TGI: > 100 µM

# TGI (compound: O=C(Nc1cccc2[nH]c(C(F)(F)F)nc12)c1ccc(Br)cc1F ) is 7.49 µM

Lab book: TGI of O=C(Cn1c(C(=O)/C=C/c2ccc(Cl)c(Cl)c2)nc2ccccc21)c1ccccc1 noted as > 100 µM
